# system name: UniProt:Q13946
# experimental protocol: Inhibition of human recombinant PDE7A1 assessed as inhibition of [3H]cAMP hydrolysis by scintillation proximity assay
quantity kind: log10 of Ki (log10 of the value in µM)
Values are log10 of Ki in µM.

What does the record list as log10 of Ki for `COc1cc2c(cc1OC)-c1c(-c3cncs3)ncn1CC2` ? 0.57

What does the record list as log10 of Ki for `COc1cccc(-c2ncn3c2-c2cc(OC)c(OC)cc2CC3)c1` ? 0.74

What does the record list as log10 of Ki for `COc1cc2c(cc1OC)-c1c(-c3cccc(N4CCOCC4)c3)ncn1CC2` ? 0.88

What does the record list as log10 of Ki for `COc1cc2c(cc1OC)-c1c(-c3cccc(Cl)c3)ncn1CC2` ? 0.84

What does the record list as log10 of Ki for `COc1cc2c(cc1OC)-c1c(-c3cnc(CN4CCCOCC4)s3)ncn1CC2` ? 0.58

What does the record list as log10 of Ki for `COc1cc2c(cc1OC)-c1c(-c3cnc(C(=O)N4CCCOCC4)s3)ncn1CC2` ? -0.57

What does the record list as log10 of Ki for `COc1cc2c(cc1OC)-c1c(-c3cnc(C(=O)N4CCOCC4)s3)ncn1CC2` ? -0.21

What does the record list as log10 of Ki for `CCOc1cccc(-c2ncn3c2-c2cc(OC)c(OC)cc2CC3)c1` ? 0.58

What does the record list as log10 of Ki for `COc1cc2c(cc1OC)-c1c(-c3cnc(CO)s3)ncn1CC2` ? 0.66

What does the record list as log10 of Ki for `COc1cc2c(cc1OC)-c1c(-c3cnc(C(=O)N(C)C(C)(C)C)s3)ncn1CC2` ? -0.61

* * *

# experimental protocol: Efflux ratio in human Caco2 cells
# Assay type: ADME, cell-based
# measurement parameters: Caco-2
quantity kind: efflux ratio
Field format: numeric only.

What does the record list as efflux ratio for `COc1cc2c(cc1OC)-c1c(-c3cccnc3)ncn1CC2` ? 1.4

* * *

# system name: High affinity 3',5'-cyclic-AMP phosphodiesterase 7A (Homo sapiens)
# Sequence (Q13946 whole entry): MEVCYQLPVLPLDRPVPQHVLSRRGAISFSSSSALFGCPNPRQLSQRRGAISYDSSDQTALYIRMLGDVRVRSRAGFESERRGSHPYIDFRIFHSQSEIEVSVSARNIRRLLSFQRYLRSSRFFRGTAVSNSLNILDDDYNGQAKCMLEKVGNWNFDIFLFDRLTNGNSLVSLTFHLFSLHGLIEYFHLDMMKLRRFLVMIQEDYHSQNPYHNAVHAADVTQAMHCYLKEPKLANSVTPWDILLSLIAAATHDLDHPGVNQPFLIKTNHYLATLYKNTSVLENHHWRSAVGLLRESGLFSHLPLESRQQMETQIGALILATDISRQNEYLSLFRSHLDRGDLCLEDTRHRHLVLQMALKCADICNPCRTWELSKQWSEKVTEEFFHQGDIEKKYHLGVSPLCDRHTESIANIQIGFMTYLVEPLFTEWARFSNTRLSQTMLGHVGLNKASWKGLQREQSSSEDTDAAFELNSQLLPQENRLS
# experimental protocol: Inhibition of human recombinant PDE7A1 assessed as inhibition of [3H]cAMP hydrolysis by scintillation proximity assay
quantity kind: pKi
Bear in mind: pKi is minus log10 of a mol/L concentration; give just that figure.

What does the record list as pKi for `COc1cc2c(cc1OC)-c1c(-c3cnco3)ncn1CC2` ? 4.96

What does the record list as pKi for `COc1cc2c(cc1OC)-c1c(-c3cccnc3)nc(C)n1CC2` ? 5.22

What does the record list as pKi for `COc1cc2c(cc1OC)-c1c(-c3cnc(CN4CCOCC4)s3)ncn1CC2` ? 5.34

* * *

So I've got a bunch of compounds here, and I need their hepatocyte CLint values.
# experimental protocol: Clearance in monkey hepatocytes assessed per 10^6 cells
# Format: ADME, cell-based, Macaca mulatta, Hepatocyte
# measurement parameters: rhesus monkey, read-out: CLH
Give the value in µL/min/1e6 cells but do not write µL/min/1e6 cells after it.

What does the record list as hepatocyte CLint for `CCOc1cccc(-c2ncn3c2-c2cc(OC)c(OC)cc2CC3)c1` ? 66

What does the record list as hepatocyte CLint for `COc1cc2c(cc1OC)-c1c(-c3cncs3)nc(C)n1CC2` ? 65.5

What does the record list as hepatocyte CLint for `COc1cc2c(cc1OC)-c1c(-c3cccnc3)nc(C)n1CC2` ? 26.6

What does the record list as hepatocyte CLint for `COc1cc2c(cc1OC)-c1c(-c3cnc(C(=O)NC4CCOCC4)s3)ncn1CC2` ? 22.7

What does the record list as hepatocyte CLint for `COc1cc2c(cc1OC)-c1c(-c3cnc(C(=O)N(C)C(C)(C)C)s3)ncn1CC2` ? 59

What does the record list as hepatocyte CLint for `COc1cc2c(cc1OC)-c1c(-c3cnco3)ncn1CC2` ? 67

What does the record list as hepatocyte CLint for `COc1cc2c(cc1OC)-c1c(-c3cccc(Br)c3)ncn1CC2` ? 66

What does the record list as hepatocyte CLint for `COc1cc2c(cc1OC)-c1c(-c3cccc(Cl)c3)ncn1CC2` ? 66

What does the record list as hepatocyte CLint for `COc1cc2c(cc1OC)-c1c(-c3cccnc3)ncn1CC2` ? 38.7

What does the record list as hepatocyte CLint for `COc1cccc(-c2ncn3c2-c2cc(OC)c(OC)cc2CC3)c1` ? 66

What does the record list as hepatocyte CLint for `COc1cc2c(cc1OC)-c1c(-c3cccc(N4CCOCC4)c3)ncn1CC2` ? 66
